# assay.system: hAPJ (Homo sapiens)
# test.protocol: beta arrestin assay (DiscoverX)
# Type: cell-based
# measurement.context: read-out: β-arrestin EC50
Ends that are not written are not given here.
measure: pEC50
The scale used: pEC50 is minus the common logarithm of the concentration in molar units.

Which pEC50 value belongs to QRPRLAHKGPMPF [reference compound] ? 7.92

###

# assay.system: hAPJ (Homo sapiens, UniProt P35414)
# Sequence (P35414 1-380): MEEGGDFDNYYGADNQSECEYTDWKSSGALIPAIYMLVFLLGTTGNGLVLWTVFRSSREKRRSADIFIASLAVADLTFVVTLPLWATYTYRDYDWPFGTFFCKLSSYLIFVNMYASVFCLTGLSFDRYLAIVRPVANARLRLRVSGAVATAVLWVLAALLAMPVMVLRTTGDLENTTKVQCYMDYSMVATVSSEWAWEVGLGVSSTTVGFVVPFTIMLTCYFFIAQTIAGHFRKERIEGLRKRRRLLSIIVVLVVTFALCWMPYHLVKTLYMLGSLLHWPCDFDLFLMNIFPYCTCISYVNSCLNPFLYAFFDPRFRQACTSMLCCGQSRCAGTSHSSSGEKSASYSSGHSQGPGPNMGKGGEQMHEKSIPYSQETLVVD
# test.protocol: cAMP assay (DiscoverX)
# Format: cell-based
Numbered stars: 1 amine (or outer) side, 2 acyl side, 3 side chain; on linkers, the order of the positions; unused ones are H or OH. Bridge positions count the residues as written; N and C are the ends. Square brackets hold non-standard residues; d marks the D form. Peptide text beside a SMILES is read from it. ξ: configuration not given here. ξAbu(3ξ-yl) = CC(C(N[*:1])C(=O)[*:2])[*:3]; pGlu = O=C1CC[C@@H](C(=O)O)N1; ξC = NC(CS)C(=O)O
measure: EC50 (nM)
Answer format: numeric, nM implied, no suffix.

Which EC50 value belongs to CSCC[C@H](NC(=O)[C@@H]1CCCN1C(=O)CNC(=O)[C@H](CCCCN)NC(=O)C1CSC(C)C(NC(=O)[C@H](CCCNC(=N)N)NC(=O)[C@@H]2CCCN2C(=O)[C@H](CCCNC(=N)N)NC(=O)[C@@H]2CCC(=O)N2)C(=O)N[C@@H](CC(C)C)C(=O)N[C@@H](C)C(=O)N1)C(=O)N1CCC[C@H]1C(=O)N[C@@H](Cc1ccccc1)C(=O)O (stereo partly shown) [pEApeI4a, pERPRmeLanLAmeLanKGPMPF] ([pGlu]RPR[ξAbu(3ξ-yl)]LA[ξC]KGPMPF-OH; thioether 5-8; C-terminus assumed) ? 12.8

###

# assay.system: hAPJ (Homo sapiens)
# test.protocol: beta arrestin assay (DiscoverX)
# Assay type: cell-based
# measurement.context: read-out: β-arrestin EC50
Numbered stars: 1 amine (or outer) side, 2 acyl side, 3 side chain; on linkers, the order of the positions; unused ones are H or OH. Bridge positions count the residues as written; N and C are the ends. Square brackets hold non-standard residues; d marks the D form. Peptide text beside a SMILES is read from it. ξ: configuration not given here. ξAbu(3ξ-yl) = CC(C(N[*:1])C(=O)[*:2])[*:3]; pGlu = O=C1CC[C@@H](C(=O)O)N1; X1 = CC=C(N[*:1])C(=O)[*:2]; ξC = NC(CS)C(=O)O
measure: EC50 (nM)
Answer format: numeric, nM implied, no suffix.

Which EC50 value belongs to CSCC[C@H](NC(=O)[C@@H]1CCCN1C(=O)CNC(=O)[C@H](CCCCN)NC(=O)C1CSC(C)C(NC(=O)[C@@H]2CCCN2C(=O)[C@H](CCCNC(=N)N)NC(=O)[C@@H]2CCC(=O)N2)C(=O)N[C@@H](CCCNC(=N)N)C(=O)N[C@@H](CC(C)C)C(=O)N[C@@H](C)C(=O)N1)C(=O)N1CCC[C@H]1C(=O)N[C@@H](Cc1ccccc1)C(=O)O (some centres unmarked) [pEApeI3c, pERPmeLanRLAmeLanKGPMPF] ([pGlu]RP[ξAbu(3ξ-yl)]RLA[ξC]KGPMPF-OH; thioether 4-8; C-terminus assumed) ? 2840

Which EC50 value belongs to CSCC[C@H](NC(=O)[C@@H]1CCCN1C(=O)CNC(=O)[C@H](CCCCN)NC(=O)C1CSC(C)C(NC(=O)[C@H](CCCNC(=N)N)NC(=O)[C@@H]2CCCN2C(=O)[C@H](CCCNC(=N)N)NC(=O)[C@@H]2CCC(=O)N2)C(=O)N[C@@H](CC(C)C)C(=O)N[C@@H](C)C(=O)N1)C(=O)N1CCC[C@H]1C(=O)N[C@@H](Cc1ccccc1)C(=O)O (some centres unmarked) [pEApeI4a, pERPRmeLanLAmeLanKGPMPF] ([pGlu]RPR[ξAbu(3ξ-yl)]LA[ξC]KGPMPF-OH; thioether 5-8; C-terminus assumed) ? 1110

Which EC50 value belongs to CSCC[C@H](NC(=O)[C@@H]1CCCN1C(=O)CNC(=O)C1CSC(C)C(NC(=O)[C@H](CC(C)C)NC(=O)[C@H](CCCNC(=N)N)NC(=O)[C@@H]2CCCN2C(=O)[C@H](CCCNC(=N)N)NC(=O)[C@@H]2CCC(=O)N2)C(=O)N[C@@H](Cc2c[nH]cn2)C(=O)N[C@@H](CCCCN)C(=O)N1)C(=O)N1CCC[C@H]1C(=O)O (some centres unmarked) [pEApeM6deltaF, pERPRLmeLanHKmeLanGPMP] ([pGlu]RPRL[ξAbu(3ξ-yl)]HK[ξC]GPMP-OH; thioether 6-9; C-terminus assumed) ? 385

Which EC50 value belongs to CC=C(NC(=O)[C@H](CCSC)NC(=O)[C@@H]1CCCN1C(=O)C1CSC(C)C(NC(=O)[C@H](CC(C)C)NC(=O)[C@H](CCCNC(=N)N)NC(=O)[C@@H]2CCCN2C(=O)[C@H](CCCNC(=N)N)NC(=O)[C@@H]2CCC(=O)N2)C(=O)N[C@@H](Cc2c[nH]cn2)C(=O)N[C@@H](CCCCN)C(=O)N1)C(=O)N[C@@H](Cc1ccccc1)C(=O)O (some centres unmarked) [pEApeM5T, pERPRLmeLanHKmeLanPMDhbF] ([pGlu]RPRL[ξAbu(3ξ-yl)]HK[ξC]PM[X1]F-OH; thioether 6-9; C-terminus assumed) ? 32

Which EC50 value belongs to CSCC[C@H](NC(=O)[C@@H]1CCCN1C(=O)C1CSC(C)C(NC(=O)[C@H](CC(C)C)NC(=O)[C@H](CCCNC(=N)N)NC(=O)[C@@H]2CCCN2C(=O)[C@H](CCCNC(=N)N)NC(=O)[C@@H]2CCC(=O)N2)C(=O)N[C@@H](Cc2c[nH]cn2)C(=O)N[C@@H](CCCCN)C(=O)N1)C(=O)N1CCC[C@H]1C(=O)N[C@@H](Cc1ccccc1)C(=O)O (some centres unmarked) [pEApeM5, pERPRLmelanHKmelanPMPF] ([pGlu]RPRL[ξAbu(3ξ-yl)]HK[ξC]PMPF-OH; thioether 6-9; C-terminus assumed) ? 67

Which EC50 value belongs to CSCC[C@H](NC(=O)[C@@H]1CCCN1C(=O)CNC(=O)C1CSC(C)C(NC(=O)[C@H](CC(C)C)NC(=O)[C@H](CCCNC(=N)N)NC(=O)[C@@H]2CCCN2C(=O)[C@H](CCCNC(=N)N)NC(=O)[C@@H]2CCC(=O)N2)C(=O)N[C@@H](Cc2c[nH]cn2)C(=O)N[C@@H](CCCCN)C(=O)N1)C(=O)N1CCC[C@H]1C(=O)N[C@@H](Cc1ccccc1)C(N)=O (some centres unmarked) [amidated pEApeM6, pERPRLmeLanHKmeLanGPMPF-NH2] ([pGlu]RPRL[ξAbu(3ξ-yl)]HK[ξC]GPMPF-NH2; thioether 6-9) ? 60

Which EC50 value belongs to CSCC[C@@H]1NC(=O)[C@@H]2CCCN2C(=O)CNC(=O)C(NC(=O)[C@H](Cc2c[nH]cn2)NC(=O)[C@H](C)NC(=O)[C@H](CC(C)C)NC(=O)[C@H](CCCNC(=N)N)NC(=O)[C@@H]2CCCN2C(=O)[C@H](CCCNC(=N)N)NC(=O)[C@@H]2CCC(=O)N2)CSCC(C(=O)N[C@@H](Cc2ccccc2)C(=O)O)NC1=O (some centres unmarked) [pEApeT8cS] ? 245
